- System: KRAS-mutant PDC tumor spheroid with HUVEC/MSC, viability
- assayProcedure: Anticancer human tumor 327498-153-R-J2-PDC patient-derived uterine carcinosarcoma cell line growth inhibition [KRAS2]
- runConditions: second compound 0.316 µM; first compound 0.01 µM; active compounds read low
Measured viability, T/C of individual entries
endpointLabel: viability, T/C (%)

{"compound": "CC(C)n1nc(-c2ccc3oc(N)nc3c2)c2c(N)ncnc21 + C=CC(=O)N1CCN(c2nc(=O)n(-c3c(C)ccnc3C(C)C)c3nc(-c4c(O)cccc4F)c(F)cc23)C(C)C1", "targetOrSystem": "KRAS-mutant PDC tumor spheroid with HUVEC/MSC, viability", "endpointLabel": "viability, T/C", "readoutUnits": "%", "numericValue": 14.3}
{"compound": "CN(C)C/C=C/C(=O)Nc1cc2c(Nc3ccc(F)c(Cl)c3)ncnc2cc1O[C@H]1CCOC1 + COc1cc2nc(C)nc(NC(C)c3cc(N)cc(C(F)(F)F)c3)c2cc1OC1CCOC1", "targetOrSystem": "KRAS-mutant PDC tumor spheroid with HUVEC/MSC, viability", "endpointLabel": "viability, T/C", "readoutUnits": "%", "numericValue": 67.3}
{"compound": "CC(=O)OC12COC1CC(O)C1(C)C(=O)C(O)C3=C(C)C(OC(=O)C(O)C(NC(=O)OC(C)(C)C)c4ccccc4)CC(O)(C(OC(=O)c4ccccc4)C21)C3(C)C (stereo not given) + C=CC(=O)N1CCN(c2nc(OCC3CCCN3C)nc3c2CCN(c2cccc4cccc(C)c24)C3)CC1CC#N", "targetOrSystem": "KRAS-mutant PDC tumor spheroid with HUVEC/MSC, viability", "endpointLabel": "viability, T/C", "readoutUnits": "%", "numericValue": 4.9}
{"compound": "Cn1ncnc1[C@H]1c2n[nH]c(=O)c3cc(F)cc(c23)N[C@@H]1c1ccc(F)cc1 + C=CC(=O)N1CCN(c2nc(=O)n(-c3c(C)ccnc3C(C)C)c3nc(-c4c(O)cccc4F)c(F)cc23)C(C)C1", "targetOrSystem": "KRAS-mutant PDC tumor spheroid with HUVEC/MSC, viability", "endpointLabel": "viability, T/C", "readoutUnits": "%", "numericValue": 36.9}
{"compound": "CC1COCCN1c1cc(-c2ccnn2C)c2ccnc(-c3ccn[nH]3)c2n1 (stereo not given) + CNCc1ccccc1-c1csc(C(C)Nc2nc(C)nc3cc(OC)c(OC)cc23)c1", "targetOrSystem": "KRAS-mutant PDC tumor spheroid with HUVEC/MSC, viability", "endpointLabel": "viability, T/C", "readoutUnits": "%", "numericValue": 66.6}

---

- Test system: KRAS-mutant PDC tumor spheroid with HUVEC/MSC, viability
- assayProcedure: Anticancer human tumor 327498-153-R-J2-PDC cell line growth inhibition [KRAS2];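 further: spheroids exposed to agents for seven days before reading; 100% = DMSO vehicle wells so lower means fewer viable cells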
- runConditions: second compound 0.1 µM; first compound 0.01 µM; active compounds read low

{"compound": "Cn1ncnc1[C@H]1c2n[nH]c(=O)c3cc(F)cc(c23)N[C@@H]1c1ccc(F)cc1 + C=CC(=O)N1CCN(c2nc(OCC3CCCN3C)nc3c2CCN(c2cccc4cccc(C)c24)C3)CC1CC#N", "viability, T/C / %": 35.2}
{"compound": "CC(C)n1nc(-c2ccc3oc(N)nc3c2)c2c(N)ncnc21 + COc1cc2nc(C)nc(NC(C)c3cc(N)cc(C(F)(F)F)c3)c2cc1OC1CCOC1", "viability, T/C / %": 27.3}
{"compound": "CC1COCCN1c1cc(-c2ccnn2C)c2ccnc(-c3ccn[nH]3)c2n1 (stereo not drawn) + CNCc1ccccc1-c1csc(C(C)Nc2nc(C)nc3cc(OC)c(OC)cc23)c1", "viability, T/C / %": 80}

---

- System: KRAS-mutant PDC tumor spheroid with HUVEC/MSC, viability
- assayProcedure: Anticancer human tumor 327498-153-R-J2-PDC cell line growth inhibition [KRAS2];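 further: spheroids exposed to agents for seven days before reading; 100% = DMSO vehicle wells so lower means fewer viable cells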
- runConditions: second compound 0.1 µM; first compound 0.316 µM; active compounds read low

{"molecule": "CCN1CCN(Cc2ccc(Nc3ncc(F)c(-c4cc(F)c5nc(C)n(C(C)C)c5c4)n3)nc2)CC1 + C=CC(=O)N1CCN(c2nc(OCC3CCCN3C)nc3c2CCN(c2cccc4cccc(C)c24)C3)CC1CC#N", "viability, T/C, %": 33.7}
{"molecule": "CC1COCCN1c1cc(-c2ccnn2C)c2ccnc(-c3ccn[nH]3)c2n1 (stereo unspecified) + C=CC(=O)N1CCN(c2nc(OCC3CCCN3C)nc3c2CCN(c2cccc4cccc(C)c24)C3)CC1CC#N", "viability, T/C, %": 5.92}
{"molecule": "CC1OCC2(CCN(c3cnc(Sc4ccnc(N)c4Cl)c(N)n3)CC2)C1N (stereo unspecified) + CNCc1ccccc1-c1csc(C(C)Nc2nc(C)nc3cc(OC)c(OC)cc23)c1", "viability, T/C, %": 41.2}
{"molecule": "CC1(C)CCC(CN2CCN(c3ccc(C(=O)NS(=O)(=O)c4ccc(NCC5CCOCC5)c([N+](=O)[O-])c4)c(Oc4cnc5[nH]ccc5c4)c3)CC2)=C(c2ccc(Cl)cc2)C1 + CNCc1ccccc1-c1csc(C(C)Nc2nc(C)nc3cc(OC)c(OC)cc23)c1", "viability, T/C, %": 79.4}
{"molecule": "CCN1CCN(Cc2ccc(Nc3ncc(F)c(-c4cc(F)c5nc(C)n(C(C)C)c5c4)n3)nc2)CC1 + COc1cc2nc(C)nc(NC(C)c3cc(N)cc(C(F)(F)F)c3)c2cc1OC1CCOC1", "viability, T/C, %": 40}
{"molecule": "CC1COCCN1c1cc(-c2ccnn2C)c2ccnc(-c3ccn[nH]3)c2n1 (stereo unspecified) + C=CC(=O)N1CCN(c2nc(=O)n(-c3c(C)ccnc3C(C)C)c3nc(-c4c(O)cccc4F)c(F)cc23)C(C)C1", "viability, T/C, %": 5.52}
{"molecule": "CC1COCCN1c1cc(-c2ccnn2C)c2ccnc(-c3ccn[nH]3)c2n1 (stereo unspecified) + COc1cc2nc(C)nc(NC(C)c3cc(N)cc(C(F)(F)F)c3)c2cc1OC1CCOC1", "viability, T/C, %": 3.52}
{"molecule": "Cn1nccc1Nc1nccc(-c2cc3c(s2)C(C)(C)N(CCN2CCOCC2)C3=O)n1 + CC1OCC2(CCN(c3cnc(Sc4ccnc(N)c4Cl)c(N)n3)CC2)C1N", "viability, T/C, %": 59.1}
{"molecule": "CCN1CCN(Cc2ccc(Nc3ncc(F)c(-c4cc(F)c5nc(C)n(C(C)C)c5c4)n3)nc2)CC1 + CC1OCC2(CCN(c3cnc(Sc4ccnc(N)c4Cl)c(N)n3)CC2)C1N", "viability, T/C, %": 44.6}
{"molecule": "CC1OCC2(CCN(c3cnc(Sc4ccnc(N)c4Cl)c(N)n3)CC2)C1N (stereo unspecified) + COc1cc2nc(C)nc(NC(C)c3cc(N)cc(C(F)(F)F)c3)c2cc1OC1CCOC1", "viability, T/C, %": 44.7}
{"molecule": "COc1cc2nccc(Oc3ccc(NC(=O)C4(C(=O)Nc5ccc(F)cc5)CC4)cc3)c2cc1OC + C=CC(=O)N1CCN(c2nc(=O)n(-c3c(C)ccnc3C(C)C)c3nc(-c4c(O)cccc4F)c(F)cc23)C(C)C1", "viability, T/C, %": 60.1}

---

Recorded viability, T/C, one value per entry.
- Test system: KRAS-mutant PDC tumor spheroid with HUVEC/MSC, viability
- assayProcedure: Anticancer human tumor 327498-153-R-J2-PDC cell line growth inhibition [KRAS2];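 further: spheroids exposed to agents for seven days before reading; 100% = DMSO vehicle wells so lower means fewer viable cells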
- runConditions: second compound 3.16 µM; first compound 3.16 µM; active compounds read low
endpointLabel: viability, T/C

{"molecule": "CC(C)NCC(C(=O)N1CCN(c2ncnc3c2C(C)CC3O)CC1)c1ccc(Cl)cc1 (stereo unspecified) + CC1OCC2(CCN(c3cnc(Sc4ccnc(N)c4Cl)c(N)n3)CC2)C1N", "result": "5.92%"}
{"molecule": "CC1OCC2(CCN(c3cnc(Sc4ccnc(N)c4Cl)c(N)n3)CC2)C1N (stereo unspecified) + CNCc1ccccc1-c1csc(C(C)Nc2nc(C)nc3cc(OC)c(OC)cc23)c1", "result": "0.06%"}
{"molecule": "O=C(c1cc(Cc2n[nH]c(=O)c3ccccc23)ccc1F)N1CCN(C(=O)C2CC2)CC1 + C=CC(=O)N1CCN(c2nc(OCC3CCCN3C)nc3c2CCN(c2cccc4cccc(C)c24)C3)CC1CC#N", "result": "3.25%"}
{"molecule": "CCNC(=O)CC1N=C(c2ccc(Cl)cc2)c2cc(OC)ccc2-n2c(C)nnc21 (stereo unspecified) + CC1OCC2(CCN(c3cnc(Sc4ccnc(N)c4Cl)c(N)n3)CC2)C1N", "result": "13.6%"}
{"molecule": "COc1cc(Nc2ncc3c(n2)-c2ccc(Cl)cc2C(c2c(F)cccc2OC)=NC3)ccc1C(=O)O + C=CC(=O)N1CCN(c2nc(OCC3CCCN3C)nc3c2CCN(c2cccc4cccc(C)c24)C3)CC1CC#N", "result": "0.95%"}
{"molecule": "COc1cc(Nc2ncc3c(n2)-c2ccc(Cl)cc2C(c2c(F)cccc2OC)=NC3)ccc1C(=O)O + CNCc1ccccc1-c1csc(C(C)Nc2nc(C)nc3cc(OC)c(OC)cc23)c1", "result": "0.06%"}
